System: CEM cells HIV-1 protection, formazan growth assay
protocolDescription: NCI AIDS Antiviral Assay
cond: measured here: growth of uninfected CEM cells
reportedProperty: log10 of IC50 (log10 of the value in µM)
A difference of one corresponds to tenfold IC50; all values are log10 with IC50 in µM.

Solved cases (8 shown):
O=Nc1ccc(C=C2C(=O)C=CC2=O)cc1    1.01
C/C(Cl)=N\OC(=O)Nc1ccccc1C(F)(F)F    1.52
NC(=O)CCNC(=O)c1ccccc1SC(=O)CCCC[n+]1ccccc1    2.24
CC(=O)C1=C(C)N2C(=NC3=C(CCc4ccccc43)C2c2ccc(F)cc2)S1 (stereo not drawn)    2.25
CC(=O)Nc1cc2c(cc1O)CC[C@@H]1[C@@H]2CC[C@]2(C)[C@@H](O)CC[C@@H]12    1.32
O=c1[nH]n(CCc2ccccc2CCl)c2ccc([N+](=O)[O-])cc12    1.70
OC(Cn1cncn1)(Cn1cncn1)c1ccc(Cl)cc1Cl    2.69
CN(/N=C/c1ccccc1O)c1ccc2ccccc2n1    2.10

Attention now shifts to the item below.
Lookup: What does the data say about its log10 of IC50? Entry: CC[C@@H](CCCCC1CC[C@H]2CC(=O)C[C@@H]12)OC (stereo partly drawn)
Found: 2.01

---

Tested on: CEM cells HIV-1 protection, formazan growth assay
protocolDescription: NCI AIDS Antiviral Assay
cond: measured here: growth of uninfected CEM cells
Method: The ability of compounds to protect human CEM cells from HIV-1 infection is measured as a screen for new compounds capable of inhibiting the HIV virus. Five concentrations of drug were tested on uninfected and infected cells and cell growth was measured using a soluble formazan assay. […] Compounds that provided at least 50% protection were retested. Compounds that provided at least 50% protection on retest were listed as moderately active. […]
pIC50: −log10 of the molar value.
reportedProperty: pIC50

Check out these entries, answers already filled in.
CC1=C(C(=O)Nc2ccccc2)C(c2ccc([N+](=O)[O-])cc2)C(C(=O)Nc2ccccc2)=C(C)N1    < 4.81
CC1NC(=O)C2=C1C(N)=NC(=O)C2 (stereo not given)    < 3.00
CC(C)(C)OC(=O)N(CCCCNC(=O)C(F)(F)F)CCCNC(=O)C(F)(F)F    < 3.70
CN(C)CCCOC(=O)C(c1ccccc1)C1(O)CCSCC1 (stereo not given)    < 3.70
CC(=O)[CH-]C(C)=O.[CH2-]C.[CH2-]C.[Tl+3]    < 3.30
CN1C(=O)N(C)C(O)C(Cl)(Cl)C1=O (stereo not given)    < 3.70
CCC(C(=O)c1ccccc1)C(CCCC(=O)Nc1c(C)cccc1C)N=O (stereo not given)    3.45
CCN(CC)CCCC(C)Nc1ccnc2cc(F)ccc12 (stereo not given) (tested in a mixture with another compound)    < 3.70

Lookup: Give the measured pIC50 of "O=C(NNC(=O)c1csc(NC(=S)NC2CCCCC2)n1)c1ccccc1" .
Found: 4.84

Lookup: Quick one: pIC50 of COc1nc(=O)n(C2CC(N=[N+]=[N-])C(CO)O2)cc1C (stereo not given) ?
Found: < 3.70

---

Test system: CEM cells HIV-1 protection, formazan growth assay
protocolDescription: NCI AIDS Antiviral Assay
cond: measured here: growth of uninfected CEM cells
reportedProperty: pIC50
Would you please state pIC50, meaning minus log10 of the concentration in mol/L, as a bare number?

# count of solved cases: 10
CC1=CC(C)(C)N=C2SC(c3ccc(N)cc3)=NN12    5.70
CC/C(=C(\c1ccccc1)c1ccc(OCCN(C)C)cc1)c1ccccc1    4.83
CCCCNCc1cc(S(=O)(=O)N2CCCCC2)c2cccnc2c1O    5.05
COc1cc(C2C(C(=O)Nc3ccc(Cl)c(Cl)c3)=C(C)NC(C)=C2C(=O)Nc2ccc(Cl)c(Cl)c2)ccc1O    4.90
Oc1cc2c3c(c1)CCCN3CCC2    3.71
CC(Cc1ccccc1)N(C)Cc1nc(C2CCC([N+](=O)[O-])O2)no1 (centres undefined)    4.44
N#C/C(=C/c1ccc[nH]1)P(=O)(O)O    3.14
N#Cc1c(-c2ccccc2)cc(-c2ccccc2)n(C2OCC(O)C(O)C2O)c1=S (centres undefined)    4.67
CC(C)/C(Cl)=N\OC(=O)Nc1ccc(F)c([N+](=O)[O-])c1    5.52
CC(C)(C)C(=O)O[C@H]1C=C[C@@H](O)[C@@H]2[C@H]1[C@@H]1C=C[C@H]2C1    4.64

Lookup: Fill blank: measured pIC50 of the compound "Cn1nc(-c2ccc3c(c2)OCO3)[n+]([O-])c2c(=O)n(C)c(=O)nc1-2" is ____.
Found: 6.42

Lookup: Looking for the measured pIC50 of "O=C(/C=N/O)Nc1cccc(Cl)c1I" , can you help?
Found: 4.03

Lookup: # lookup: pIC50 of NNC(=S)N/N=C(\c1nc2ccc(Cl)cc2[nH]c1=O)C(O)c1cccc([N+](=O)[O-])c1 (centres undefined)
Found: 3.92

Lookup: Could you share which pIC50 value was measured for "COc1cccc(/C=C2\S/C(=N/Nc3nc(-c4ccc([N+](=O)[O-])cc4)cs3)NC2=O)c1O" ?
Found: 4.53

Lookup: Using the record for "O=[N+]([O-])C1=C(c2ccccc2)SC(Br)=C(c2ccccc2)S1" , report its pIC50.
Found: 6.09

---

This listing pairs compounds with measured IC50.
Test system: CEM cells HIV-1 protection, formazan growth assay
protocolDescription: NCI AIDS Antiviral Assay
cond: measured here: growth of uninfected CEM cells
Number only, in µM; omit the unit.

NC(=O)C(=CNC(=S)N=Nc1c(O)[nH]c2ccccc12)C(N)=O    166
CC1CC/C(=C\c2ccc(F)cc2)C2=C1C(c1ccc(F)cc1)NC(=S)N2 (stereo not given)    16.6
COc1ccc(-c2c(C3=NCCN3)nnn2-c2ccc(Cl)cc2)cc1    91.2

Please turn your attention to the following entry.
Lookup: Entry Nc1nc(=O)n(C2OC(CO)CC2F)cc1F (stereo not given) has what IC50?
Found: 575

---

Test system: CEM cells HIV-1 protection, formazan growth assay
protocolDescription: NCI AIDS Antiviral Assay
cond: measured here: growth of uninfected CEM cells
IC50 values, listed per item

Field: example entries. Status: answers known.
CC1(C)CS(=O)(=O)CC(C)(C)C(=N/N)/C1=N\N    > 200 µM
Cc1cc(Cl)cc2c1NC(=O)C2(O)CC(=O)c1ccc(F)cc1 (stereo unspecified)    > 15.5 µM
O=C(Nc1cccc(C(F)(F)F)c1)C(=O)C1NC(=S)NC1=O (stereo unspecified)    > 191 µM
O=C(NO)C(=O)Nc1ccc(Cl)cc1[N+](=O)[O-]    > 100 µM
O=c1[nH]cnc2cc3c(cc12)nc1n3CCOC1    > 52.5 µM
CCN(CC)CC(=O)N(CC)c1ccc(C)c(Cl)c1    > 200 µM
NC1CSc2ccccc2NC1=O (stereo unspecified)    > 407 µM
CCCCCCCCCCCC1CN=C(CCCCC2=NCC(CCCCCCCCCCC)N2)N1 (stereo unspecified)    > 7.08 µM

Lookup: Which IC50 reading was recorded for the compound "CCOC(=O)/C(=C\c1ccc(Br)cc1)C(C)=O" ?
Found: 70.8 µM

Lookup: So what's the measured IC50 for this one? CCOC(=O)CSc1nnc(C(Sc2nc(-c3ccccc3)c(-c3ccccc3)[nH]2)C(C)C)n1-c1ccccc1 (stereo unspecified)
Found: > 24 µM

Lookup: Can you look up the measured IC50 of CCCCCCCCCCCCCCCCOCC(Cl)COP(=O)(O)OP(=O)(O)OCC1OC(n2cnc3c(N)ncnc32)C(O)C1O (stereo unspecified) for me?
Found: > 100 µM

---

System: CEM cells HIV-1 protection, formazan growth assay
protocolDescription: NCI AIDS Antiviral Assay
cond: measured here: growth of uninfected CEM cells
Experimental: The ability of compounds to protect human CEM cells from HIV-1 infection is measured as a screen for new compounds capable of inhibiting the HIV virus. Five concentrations of drug were tested on uninfected and infected cells and cell growth was measured using a soluble formazan assay. […] Compounds that provided at least 50% protection were retested. Compounds that provided at least 50% protection on retest were listed as moderately active. […]
reportedProperty: IC50 (µM)
Provide the reading as a plain figure in µM.

CC(C)/C(Cl)=N/OC(=O)Nc1cccc(C(F)(F)F)c1    3.02
Cc1ccc(NC(=O)CCC(=O)C2Cc3ccccc3C2=O)cc1C (centres undefined)    724
CC1/C=C/C=C/CC/C=C/C=C/C=C/C=C/C(OC2OC(C)C(O)C(N)C2O)CC2OC(CC(O)C(O)CCC(O)CC(O)CC(O)CC(=O)OC(C)C(C)C1O)CC(O)C2C(=O)O (centres undefined)    3.31

Kindly review the next compound as well.
Lookup: What IC50 value was documented for this compound, "CCOC(=O)c1cnc2c(ccc3ncccc32)c1OCC" ?
Found: 72.4
